- assayed system: T1, biotinylated CD3 epsilon:delta heterodimer protein (Amsbio AMS.CDD-H52WO) (Homo sapiens (Human), UniProt P07766 23-126; P04234 22-105)
- T1 construct: also called CD3 heterodimer
- experiment: BLI (Octet), CD3 on SA sensor, Fab analyte;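 also: fabs dipped at several concentrations (0–300 nM) onto CD3-loaded streptavidin biosensors, 100 s association then 300 s dissociation in buffer, pH 7.4, sensors blocked with biocytin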
measured endpoint: kon (M⁻¹ s⁻¹)
// note: answer is a bare numeric in M⁻¹ s⁻¹

[
  {
    "binder": "huSP34.13.9 Fab-HF (Fab, V domains shown, also called HC13+LC9) VH: EVQLVESGGGLVQPGGSLRLSCAASGFTFSTYAMNWVRQAPGKGLEWVGRIRSKYNNYATYYAASVKGRFTISRDDSKNTLYLQMNSLRTEDTAVYYCVRHGNFGHSYVSWFAYWGQGTLVTVSS VL: QAVVTQPPSLTVSPGGTVTLTCGSSTGAVTTGHYANWVQQKPGQAPRGLIGGTNKRAPGVPARFSGSLSGGKAALTISGAQPEDEAEYYCALWYSNLWVFGGGTKLTVL",
    "unit name": "M⁻¹ s⁻¹",
    "kon": "1.38e+06"
  },
  {
    "binder": "huSP34.12.8 Fab-HF (Fab, V domains shown, also called HC12+LC8) VH: EVQLVESGGGLVQPGGSLRLSCAASGFTFSTYAMNWVRQAPGKGLEWVARIRSKYNNYATYYAASVKGRFTISRDDSKNSLYLQMNSLRTEDTAVYYCVRHGNFGHSYVSWFAYWGQGTLVTVSS VL: QAVVTQEPSLTVSPGGTVTLTCGSSTGAVTTGHYANWVQQKPGQAPRGLIGGTNKRAPGVPARFSGSLLGGKAALTISGAQPEDEAEYYCALWYSNRWVFGGGTKLTVL",
    "unit name": "M⁻¹ s⁻¹",
    "kon": 493000
  }
]

Data request: Request the reported kon associated with huSP34.3.7 Fab-HF (Fab, V domains shown, also called HC3+LC7) VH: EVQLVESGGGLVQPGGSLRLSCAASGFTFNTYAMNWVRQAPGKGLEWVGRIRSKYNNYATYYADSVKGRFTISRDDSKNSLYLQMNSLRTEDTAVYYCVRHGNFGHSYVSWFAYWGQGTLVTVSS VL: QAVVTQEPSLTVSPGGTVTLTCRSSTGAVTTGHYANWVQQKPGQAPRGLIGGTNKRAPGVPARFSGSLLGGKAALTISGAQPEDEAEYYCALWYSNLWVFGGGTKLTVL
Data returned: 323000
